Data provenance: ChEMBL document CHEMBL1143590

log10(Ki): recorded values
experiment: Binding affinity towards serotonin transporter determined using [3H]paroxetine as radioligand
Units before log transform: nM; reported quantity: Ki; transform: log10.

Some compounds with known log10(Ki) results, for comparison:
// query Name the recorded log10(Ki) of the item COC(=O)C1C(c2ccc(Cl)c(Cl)c2)CC2CCC1N2C (configuration not stated) in your answer.
// result 0.50

// query Name the recorded log10(Ki) of the item COC(=O)C1C2CC[C@H](C[C@@H]1c1ccc(I)c(Cl)c1)N2C (some centres not stated) in your answer.
// result 0.02

// query Name the recorded log10(Ki) of the item COC(=O)C1C2CC[C@H](C[C@@H]1c1ccc(Cl)c(C)c1)N2C (some centres not stated) in your answer.
// result 1.02

// query Name the recorded log10(Ki) of the item COC(=O)C1C(c2ccc(Cl)c(I)c2)CC2CCC1N2C (configuration not stated) in your answer.
// result 0.14

// query Name the recorded log10(Ki) of the item COC(=O)C1C(c2ccc(I)c(I)c2)CC2CCC1N2C (configuration not stated) in your answer.
// result 0.30

Turning now to a further record.
// query Name the recorded log10(Ki) of the item COC(=O)C1C(c2ccc(Br)c(I)c2)CC2CCC1N2C (configuration not stated) in your answer.
// result 0.06

* * *

pIC50: recorded values
experiment: Binding affinity of compound towards dopamine transporter determined using [3H]WIN-35 428 as radioligand
As a rule, pIC50 stands for the negative log10 of the concentration, concentration in M.

Some molecules with known pIC50 results, for comparison:
// query Name the recorded pIC50 of the item COC(=O)C1C2CC[C@H](C[C@@H]1c1ccc(Cl)c(C)c1)N2C (some centres not stated) in your answer.
// result 9.09

// query Name the recorded pIC50 of the item COC(=O)C1C(c2ccc(Br)c(I)c2)CC2CCC1N2C (configuration not stated) in your answer.
// result 9.68

// query Name the recorded pIC50 of the item COC(=O)C1C2CC[C@H](C[C@@H]1c1ccc(I)c(Cl)c1)N2C (some centres not stated) in your answer.
// result 9.59

// query Name the recorded pIC50 of the item COC(=O)C1C(c2ccc(Br)c(Br)c2)CC2CCC1N2C (configuration not stated) in your answer.
// result 9.57

// query Name the recorded pIC50 of the item COC(=O)C1C(c2ccc(Br)c(Cl)c2)CC2CCC1N2C (configuration not stated) in your answer.
// result 9.92

Next:
// query Name the recorded pIC50 of the item COC(=O)C1C(c2ccc(I)c(I)c2)CC2CCC1N2C (configuration not stated) in your answer.
// result 9.01

// query Name the recorded pIC50 of the item COC(=O)C1C(c2ccc(C)c(C)c2)CC2CCC1N2C (configuration not stated) in your answer.
// result 9.37

// query Name the recorded pIC50 of the item COC(=O)C1C(c2ccc(Cl)c(Cl)c2)CC2CCC1N2C (configuration not stated) in your answer.
// result 9.10

// query Name the recorded pIC50 of the item COC(=O)[C@@H]1C2CC[C@H](C[C@@H]1c1ccccc1)N2C in your answer.
// result 7.64

// query Name the recorded pIC50 of the item COC(=O)C1C(c2ccc(Cl)c(Br)c2)CC2CCC1N2C (configuration not stated) in your answer.
// result 9.38

// query Name the recorded pIC50 of the item COC(=O)C1C2CC[C@H](C[C@@H]1c1ccc(I)c(Br)c1)N2C (some centres not stated) in your answer.
// result 9.70

// query Name the recorded pIC50 of the item COC(=O)C1C(c2ccc(Cl)c(I)c2)CC2CCC1N2C (configuration not stated) in your answer.
// result 9.39

* * *

experiment: Binding affinity towards norepinephrine transporter determined using [3H]nisoxetine as radioligand
pKi: −log10 of the molar value.
Tag: y if measured pKi is not below 8, n if it is.

// query Could you tell me if the measured pKi of COC(=O)C1C(c2ccc(Br)c(Cl)c2)CC2CCC1N2C (configuration not stated) reaches 8 or more?
// result y

Switching to the query record.
// query Could you tell me if the measured pKi of COC(=O)C1C2CC[C@H](C[C@@H]1c1ccc(I)c(Cl)c1)N2C (some centres not stated) reaches 8 or more?
// result y

* * *

assay: Binding affinity towards serotonin transporter determined using [3H]paroxetine as radioligand
Endpoint label: log10 of Ki (log10 of the value in nM)
Units before log transform: nM; reported quantity: Ki; transform: log10.

// query Name the recorded log10 of Ki of the item COC(=O)C1C(c2ccc(Br)c(Cl)c2)CC2CCC1N2C (stereo unspecified) in your answer.
// result -0.03

// query Name the recorded log10 of Ki of the item COC(=O)C1C2CC[C@H](C[C@@H]1c1ccc(I)c(Br)c1)N2C (stereo partly specified) in your answer.
// result -0.24

* * *

assay: Binding affinity towards norepinephrine transporter determined using [3H]nisoxetine as radioligand
pKi: −log10 of the molar value.
Field: class. Source value: pKi. Ranges: bin 1 (below 7), bin 2 (7 to below 8), bin 3 (8 or more)

// query // bin(item) where item = COC(=O)C1C(c2ccc(Br)c(Br)c2)CC2CCC1N2C (stereo not given)
// result bin 3

Next:
// query // bin(item) where item = COC(=O)[C@@H]1C2CC[C@H](C[C@@H]1c1ccccc1)N2C
// result bin 1

// query // bin(item) where item = COC(=O)C1C(c2ccc(I)c(I)c2)CC2CCC1N2C (stereo not given)
// result bin 2

// query // bin(item) where item = COC(=O)C1C(c2ccc(Cl)c(Cl)c2)CC2CCC1N2C (stereo not given)
// result bin 2

// query // bin(item) where item = COC(=O)C1C2CC[C@H](C[C@@H]1c1ccc(Cl)c(C)c1)N2C (stereo not given in full)
// result bin 2

// query // bin(item) where item = COC(=O)C1C2CC[C@H](C[C@@H]1c1ccc(I)c(Br)c1)N2C (stereo not given in full)
// result bin 3

* * *

experiment: Binding affinity towards serotonin transporter determined using [3H]paroxetine as radioligand
Endpoint label: pKi
As a rule, pKi stands for the negative log10 of the concentration, concentration in M.

// query Name the recorded pKi of the item COC(=O)C1C(c2ccc(C)c(C)c2)CC2CCC1N2C (centres undefined) in your answer.
// result 8.01

// query Name the recorded pKi of the item COC(=O)C1C(c2ccc(Cl)c(Br)c2)CC2CCC1N2C (centres undefined) in your answer.
// result 9.11

// query Name the recorded pKi of the item COC(=O)[C@@H]1C2CC[C@H](C[C@@H]1c1ccccc1)N2C in your answer.
// result 5.97

Turning now to a further record.
// query Name the recorded pKi of the item COC(=O)C1C(c2ccc(Br)c(Br)c2)CC2CCC1N2C (centres undefined) in your answer.
// result 9.15

* * *

experiment: Binding affinity towards norepinephrine transporter determined using [3H]nisoxetine as radioligand
Endpoint label: Ki (nM)
Please reply with the bare figure in nM and do not write the unit itself.

Some compounds with known Ki results, for comparison:
// query Name the recorded Ki of the item COC(=O)C1C(c2ccc(C)c(C)c2)CC2CCC1N2C (centres undefined) in your answer.
// result 107

// query Name the recorded Ki of the item COC(=O)C1C(c2ccc(Cl)c(I)c2)CC2CCC1N2C (centres undefined) in your answer.
// result 15.1

// query Name the recorded Ki of the item COC(=O)C1C(c2ccc(Br)c(I)c2)CC2CCC1N2C (centres undefined) in your answer.
// result 10.4

Next:
// query Name the recorded Ki of the item COC(=O)C1C(c2ccc(Cl)c(Br)c2)CC2CCC1N2C (centres undefined) in your answer.
// result 7.24
